Organism: Rattus norvegicus
Protocol: animal or person
Condition Summary: Wistar, po, read-out: INH
Assignment: determine reported inhibition in vivo at 10 mg/kg for the given molecules.
Numbers only, in %.

COc1cc(-c2c(C(=O)O)c3ccccn3c2CN)ccc1O :: 63.9
NCc1c(-c2ccc(C(F)(F)F)cc2)c(C(=O)O)c2ccccn12 :: 62.8
NCc1c(-c2ccc(F)cc2)c(C(=O)O)c2ccccn12 :: 89.5
Cc1c(C(=O)O)c2ccccn2c1CN :: 44.2
NCc1c(-c2ccc3c(c2)OCO3)c(C(=O)O)c2ccccn12 :: 74.4
CCc1c(C(=O)O)c2ccccn2c1CN :: 32.5
NCc1c(-c2ccccc2)c(C(=O)O)c2ccccn12 :: 90.5

Next up:
-- ask # get_value(readout='inhibition in vivo at 10 mg/kg', item= CCCCc1c(C(=O)O)c2ccccn2c1CN )
-- reply 24.4
